As shown below, each of these variants has a reported protein stability index value.
B1: DVL3 (parent)
chain: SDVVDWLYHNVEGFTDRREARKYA

Variants of: B1
Experiment: protein stability index of a GFP-peptide fusion (GPS, HEK-293T) (PSI 1-6); higher = more stable;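 also: lentivirally expressed fusions sorted by FACS into six bins by GFP to DsRed ratio, PSI derived from sequencing read proportions per bin multiplied by bin number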
Conditions: c terminus: a fixed tail appended
Would you mind answering with just the numeric figure?

Recorded results for 4 variants are shown here.
mutant-id: N10G
protein stability index: 3.03
//
mutant-id: N10F
protein stability index: 1.75
//
mutant-id: R17D
protein stability index: 3.56
//
mutant-id: L7R
protein stability index: 2.65

Q: I have this variant here, W6E , and I need its recorded protein stability index.
Ans: 4.97

Q: // next record D16H
Ans: 2.37

Q: // next record Y8N
Ans: 3.87
